Origin of the recorded values: paper PMC5409837

test system: hiPSC-CMs; settings: hiPSC-CMs, 72 hour TKI treatment, PrestoBlue cell viability assay
Exam item: assign YES to entries whose LD50 is below 4 µM and NO to entries at or above 4 µM. Note that a value of exactly 4 µM receives NO.

Completed entries (count: 2):
COc1cccc2c1C(=O)c1c(O)c3c(c(O)c1C2=O)C[C@@](O)(C(=O)CO)C[C@@H]3O[C@H]1C[C@H](N)[C@H](O)[C@H](C)O1 ... YES
C#Cc1cccc(Nc2ncnc3cc(OCCOC)c(OCCOC)cc23)c1 ... NO

Query: Hello, is LD50 of the following compound strictly smaller than 4 µM? Cc1ccc(C(=O)Nc2ccc(CN3CCN(C)CC3)c(C(F)(F)F)c2)cc1C#Cc1cnc2cccnn12
Reply: NO

Query: Is LD50 strictly under 4 µM for the entry CNC(=O)c1cc(Oc2ccc(NC(=O)Nc3ccc(Cl)c(C(F)(F)F)c3)c(F)c2)ccn1 ?
Reply: NO

Query: Strictly below 4 µM: is that where LD50 of CNC(=O)c1cc(Oc2ccc(NC(=O)Nc3ccc(Cl)c(C(F)(F)F)c3)cc2)ccn1 sits?
Reply: YES
